test_target: PKBb (Homo sapiens, UniProt P31751)
Sequence (P31751 whole entry): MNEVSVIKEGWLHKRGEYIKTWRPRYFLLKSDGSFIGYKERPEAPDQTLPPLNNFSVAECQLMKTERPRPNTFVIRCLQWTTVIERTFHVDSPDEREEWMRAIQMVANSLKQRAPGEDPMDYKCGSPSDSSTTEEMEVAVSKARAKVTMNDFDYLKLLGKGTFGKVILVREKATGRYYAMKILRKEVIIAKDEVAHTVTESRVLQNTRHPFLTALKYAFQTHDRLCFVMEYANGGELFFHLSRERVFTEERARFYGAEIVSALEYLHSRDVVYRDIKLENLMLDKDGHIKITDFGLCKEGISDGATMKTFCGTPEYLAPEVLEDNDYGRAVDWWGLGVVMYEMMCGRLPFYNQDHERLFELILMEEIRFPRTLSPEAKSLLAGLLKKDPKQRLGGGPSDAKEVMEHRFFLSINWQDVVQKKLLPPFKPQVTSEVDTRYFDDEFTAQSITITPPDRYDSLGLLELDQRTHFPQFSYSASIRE
procedure_details: Kinase profiling PKBb
Assay type: biochemical
applied_conditions: 100 micromolar inhibitor concentration; 100 is no change
Source text: Any value less that 25 is considered to be highly significant inhibition.
Listing of entries alongside the reported residual kinase activity, PKBb.
measured_attribute: residual kinase activity, PKBb

INSERT INTO measurements (compound, endpoint_result) VALUES
  ('O=C(Nc1nc2ccc(O)cc2s1)c1ccncc1', 52),
  ('CC(=O)Nc1ccc(C(=O)Nc2nc3cc(O)ccc3s2)cc1', 18),
  ('CC(=O)Nc1cccc(C(=O)Nc2nc3cc(O)ccc3s2)c1', 7),
  ('O=C(Nc1nc2ccc(O)cc2s1)c1ccccn1', 61),
  ('CC(=O)Nc1nc2cc(C)ccc2s1', 91),
  ('COc1ccc2sc(NC(=O)c3cccc(NC(C)=O)c3)nc2c1', 22),
  ('COc1ccc2sc(NC(=O)c3ccc(NC(C)=O)cc3)nc2c1', 44),
  ('CC(=O)NC(C)C(=O)Nc1nc2ccc(C(F)(F)F)cc2s1 (stereo not shown)', 93),
  ('O=C(Nc1nc2ccc(O)cc2s1)c1ccccc1', 86),
  ('CC(=O)Nc1cccc(C(=O)Nc2nc3ccc(O)cc3s2)c1', 80);

---

test_target: p38a MAPK (Homo sapiens)
Sequence (Q16539 whole entry): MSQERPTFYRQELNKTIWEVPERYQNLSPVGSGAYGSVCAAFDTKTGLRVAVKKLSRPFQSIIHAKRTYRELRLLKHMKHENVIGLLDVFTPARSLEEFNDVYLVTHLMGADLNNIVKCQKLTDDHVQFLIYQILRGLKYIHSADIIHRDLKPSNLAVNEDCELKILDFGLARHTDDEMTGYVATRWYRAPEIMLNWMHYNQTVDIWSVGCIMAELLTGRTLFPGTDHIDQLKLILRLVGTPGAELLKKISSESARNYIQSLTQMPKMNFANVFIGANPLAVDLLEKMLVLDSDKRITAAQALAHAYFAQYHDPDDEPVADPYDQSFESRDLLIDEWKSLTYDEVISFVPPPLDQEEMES
procedure_details: Kinase profiling p38a MAPK
Format: biochemical
applied_conditions: 100 micromolar inhibitor concentration; 100 is no change; read-out: residual kinase activity, p38a MAPK
We begin with a simple list: items and their reported remaining activity at 100 µM.
measured_attribute: remaining activity at 100 µM (%)

INSERT INTO assay_data (compound, readout_unit, endpoint_result) VALUES
  ('CC(=O)Nc1nc2cc(F)ccc2s1 [Compound 03-77]', '%', 88),
  ('CC(=O)Nc1nc2ccc([N+](=O)[O-])cc2s1 [Compound 13-10]', '%', 103),
  ('CC(=O)Nc1nc2cc(C(F)(F)F)ccc2s1 [Compound 03-73]', '%', 92),
  ('CC(=O)Nc1nc2ccc(C#N)cc2s1 [Compound 01-94]', '%', 102),
  ('CC(=O)Nc1nc2ccc(C(F)(F)F)cc2s1 [Compound 01-90]', '%', 106),
  ('CC(=O)Nc1nc2ccc(O)cc2s1 [Compound 01-71]', '%', 86),
  ('COc1ccc2sc(NC(C)=O)nc2c1 [Compound 03-21]', '%', 96);

---

test_target: HIPK1 (Homo sapiens)
Sequence (Q86Z02 whole entry, species assumed): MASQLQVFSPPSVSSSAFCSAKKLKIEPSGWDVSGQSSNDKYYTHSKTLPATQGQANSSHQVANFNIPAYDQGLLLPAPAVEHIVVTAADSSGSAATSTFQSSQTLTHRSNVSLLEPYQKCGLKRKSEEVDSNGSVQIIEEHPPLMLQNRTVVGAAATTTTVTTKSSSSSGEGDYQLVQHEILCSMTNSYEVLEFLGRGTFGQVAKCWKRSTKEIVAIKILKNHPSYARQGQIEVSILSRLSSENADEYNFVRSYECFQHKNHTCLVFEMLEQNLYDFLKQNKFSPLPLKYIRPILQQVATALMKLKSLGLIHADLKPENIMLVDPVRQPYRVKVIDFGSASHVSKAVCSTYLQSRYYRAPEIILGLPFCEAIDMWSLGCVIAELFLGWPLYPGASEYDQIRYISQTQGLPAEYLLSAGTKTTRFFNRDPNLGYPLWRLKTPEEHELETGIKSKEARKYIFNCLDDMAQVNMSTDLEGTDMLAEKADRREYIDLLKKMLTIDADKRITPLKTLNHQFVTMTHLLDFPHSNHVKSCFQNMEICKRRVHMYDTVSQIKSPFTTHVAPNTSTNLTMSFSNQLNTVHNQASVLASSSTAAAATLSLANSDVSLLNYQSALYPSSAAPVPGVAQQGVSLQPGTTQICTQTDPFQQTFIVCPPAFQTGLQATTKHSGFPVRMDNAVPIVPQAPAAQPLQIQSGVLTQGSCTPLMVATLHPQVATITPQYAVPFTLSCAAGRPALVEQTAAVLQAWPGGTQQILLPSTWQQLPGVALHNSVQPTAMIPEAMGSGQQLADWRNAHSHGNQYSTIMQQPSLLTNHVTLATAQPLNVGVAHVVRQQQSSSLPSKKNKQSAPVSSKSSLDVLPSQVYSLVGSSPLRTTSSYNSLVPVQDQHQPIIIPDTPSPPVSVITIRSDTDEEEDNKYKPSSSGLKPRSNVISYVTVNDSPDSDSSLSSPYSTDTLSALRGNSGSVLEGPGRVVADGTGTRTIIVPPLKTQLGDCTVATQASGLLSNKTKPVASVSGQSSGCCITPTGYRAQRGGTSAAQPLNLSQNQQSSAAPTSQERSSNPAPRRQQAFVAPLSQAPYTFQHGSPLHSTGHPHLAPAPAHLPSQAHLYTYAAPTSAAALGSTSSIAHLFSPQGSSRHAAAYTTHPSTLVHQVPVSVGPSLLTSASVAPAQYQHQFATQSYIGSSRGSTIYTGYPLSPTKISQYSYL
procedure_details: Kinase profiling HIPK1
Type: biochemical
applied_conditions: 100 micromolar inhibitor concentration; 100 is no change; read-out: residual kinase activity, HIPK1
Please note: remaining activity at 100 µM exactly at 40% is condition not met. Only values below 40% get condition met.

INSERT INTO results (smiles_str, assigned_category) VALUES
  ('CC(=O)Nc1nc2ccc(C(F)(F)F)cc2s1', 'condition not met'),
  ('CC(=O)Nc1nc2ccc(O)cc2s1', 'condition not met'),
  ('CC(=O)Nc1nc2ccc(C#N)cc2s1', 'condition met'),
  ('CC(=O)Nc1nc2cc(C(F)(F)F)ccc2s1', 'condition not met');

---

Entries and their residual kinase activity, EPH-B3
test_target: EPH-B3 (Homo sapiens)
Sequence (P54753 34-998, species assumed): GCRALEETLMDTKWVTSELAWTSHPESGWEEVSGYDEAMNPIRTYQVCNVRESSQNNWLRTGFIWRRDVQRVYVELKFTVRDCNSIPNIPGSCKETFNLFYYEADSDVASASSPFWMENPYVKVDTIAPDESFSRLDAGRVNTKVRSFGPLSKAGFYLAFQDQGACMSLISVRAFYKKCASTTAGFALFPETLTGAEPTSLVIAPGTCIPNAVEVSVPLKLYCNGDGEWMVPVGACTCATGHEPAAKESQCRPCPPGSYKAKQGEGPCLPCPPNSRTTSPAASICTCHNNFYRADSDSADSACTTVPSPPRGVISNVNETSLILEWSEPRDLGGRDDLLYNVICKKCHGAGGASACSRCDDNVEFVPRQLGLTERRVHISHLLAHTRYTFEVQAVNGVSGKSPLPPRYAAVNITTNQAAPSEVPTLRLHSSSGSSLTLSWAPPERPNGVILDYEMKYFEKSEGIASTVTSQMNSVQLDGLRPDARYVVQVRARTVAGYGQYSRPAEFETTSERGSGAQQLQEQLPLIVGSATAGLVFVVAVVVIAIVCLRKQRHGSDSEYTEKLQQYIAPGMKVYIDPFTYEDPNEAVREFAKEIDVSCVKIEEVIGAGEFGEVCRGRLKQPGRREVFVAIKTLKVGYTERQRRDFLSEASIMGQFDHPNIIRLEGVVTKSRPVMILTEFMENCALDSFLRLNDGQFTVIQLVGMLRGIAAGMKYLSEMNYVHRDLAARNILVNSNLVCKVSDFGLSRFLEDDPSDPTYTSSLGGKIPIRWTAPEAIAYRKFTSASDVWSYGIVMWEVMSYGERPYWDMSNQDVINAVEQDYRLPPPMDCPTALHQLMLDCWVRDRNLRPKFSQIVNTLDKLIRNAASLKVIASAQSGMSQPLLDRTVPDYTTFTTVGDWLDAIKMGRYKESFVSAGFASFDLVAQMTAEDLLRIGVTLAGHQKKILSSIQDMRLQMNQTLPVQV
procedure_details: Kinase profiling EPH-B3
Type: biochemical
applied_conditions: 100 micromolar inhibitor concentration; 100 is no change
measured_attribute: residual kinase activity, EPH-B3

INSERT INTO measurements (smiles_str, test_target, endpoint_result) VALUES
  ('O=C(Nc1nc2ccc(O)cc2s1)c1cccnc1', 'EPH-B3 (Homo sapiens)', 65),
  ('O=C(Nc1nc2cc(O)ccc2s1)c1ccncc1', 'EPH-B3 (Homo sapiens)', 76),
  ('CC(=O)Nc1nc2ccccc2s1', 'EPH-B3 (Homo sapiens)', 71),
  ('O=C(Nc1nc2ccc(O)cc2s1)c1ccccn1', 'EPH-B3 (Homo sapiens)', 63),
  ('O=C(Nc1nc2ccc(O)cc2s1)c1ccncc1', 'EPH-B3 (Homo sapiens)', 88);

---

test_target: SIK3 (Homo sapiens)
Sequence (Q9Y2K2 whole entry, species assumed): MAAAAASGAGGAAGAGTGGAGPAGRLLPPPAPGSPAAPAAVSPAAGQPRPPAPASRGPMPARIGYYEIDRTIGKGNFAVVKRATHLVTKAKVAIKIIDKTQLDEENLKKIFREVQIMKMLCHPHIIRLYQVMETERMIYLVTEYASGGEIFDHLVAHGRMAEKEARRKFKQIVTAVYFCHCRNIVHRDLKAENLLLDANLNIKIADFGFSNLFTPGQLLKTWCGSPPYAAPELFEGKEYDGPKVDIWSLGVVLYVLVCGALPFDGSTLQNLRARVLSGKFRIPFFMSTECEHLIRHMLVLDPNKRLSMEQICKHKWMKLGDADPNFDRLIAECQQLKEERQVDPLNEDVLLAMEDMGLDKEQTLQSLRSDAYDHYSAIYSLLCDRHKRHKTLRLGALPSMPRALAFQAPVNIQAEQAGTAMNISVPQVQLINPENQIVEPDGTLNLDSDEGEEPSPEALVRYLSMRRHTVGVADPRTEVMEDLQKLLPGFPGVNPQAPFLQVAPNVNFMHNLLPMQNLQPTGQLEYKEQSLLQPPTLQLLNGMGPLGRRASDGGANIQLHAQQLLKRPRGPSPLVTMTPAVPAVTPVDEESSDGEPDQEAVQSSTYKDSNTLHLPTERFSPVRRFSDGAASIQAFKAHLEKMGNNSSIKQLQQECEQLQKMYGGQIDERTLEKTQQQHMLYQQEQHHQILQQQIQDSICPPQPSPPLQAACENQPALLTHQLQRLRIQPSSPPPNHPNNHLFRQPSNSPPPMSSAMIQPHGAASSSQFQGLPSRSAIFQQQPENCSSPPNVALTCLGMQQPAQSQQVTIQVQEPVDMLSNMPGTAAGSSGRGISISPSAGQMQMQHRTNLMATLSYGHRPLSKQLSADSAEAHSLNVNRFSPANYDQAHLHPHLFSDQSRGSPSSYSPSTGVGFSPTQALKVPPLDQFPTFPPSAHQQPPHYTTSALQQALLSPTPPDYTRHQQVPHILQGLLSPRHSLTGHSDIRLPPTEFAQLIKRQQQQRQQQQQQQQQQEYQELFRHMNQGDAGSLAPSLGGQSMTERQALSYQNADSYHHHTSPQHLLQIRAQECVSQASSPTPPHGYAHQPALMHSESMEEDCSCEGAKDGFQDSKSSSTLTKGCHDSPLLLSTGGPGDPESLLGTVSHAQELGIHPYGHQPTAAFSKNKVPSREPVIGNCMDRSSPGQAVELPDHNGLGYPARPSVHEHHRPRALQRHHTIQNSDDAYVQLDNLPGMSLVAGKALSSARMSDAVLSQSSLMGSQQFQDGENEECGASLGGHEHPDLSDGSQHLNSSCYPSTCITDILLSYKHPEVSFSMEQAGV
procedure_details: Kinase profiling SIK3
Format: biochemical
applied_conditions: 100 micromolar inhibitor concentration; 100 is no change; read-out: residual kinase activity, SIK3
With a cut-off of 80%, any remaining activity at 100 µM strictly below it is called True; any remaining activity at 100 µM meeting it or above is called False.

INSERT INTO results (smiles_str, assigned_category) VALUES
  ('CC(=O)Nc1nc2cc(F)ccc2s1', 'False'),
  ('COc1ccc2sc(NC(C)=O)nc2c1', 'False'),
  ('CC(=O)Nc1nc2ccc(O)cc2s1', 'True'),
  ('CC(=O)Nc1nc2cc(C(F)(F)F)ccc2s1', 'False'),
  ('CC(=O)Nc1nc2ccc(C#N)cc2s1', 'True');

---

test_target: TrkA (Homo sapiens)
procedure_details: Kinase profiling TrkA
Assay type: biochemical
applied_conditions: 100 micromolar inhibitor concentration; 100 is no change; read-out: residual kinase activity, TrkA
measured_attribute: remaining activity at 100 µM (%)

INSERT INTO measurements (smiles_str, test_target, measured_attribute, readout_unit, endpoint_result) VALUES
  ('COc1ccc2sc(NC(C)=O)nc2c1', 'TrkA (Homo sapiens)', 'remaining activity at 100 µM', '%', 78),
  ('CC(=O)Nc1nc2cc(F)ccc2s1', 'TrkA (Homo sapiens)', 'remaining activity at 100 µM', '%', 59),
  ('CC(=O)Nc1nc2ccc(O)cc2s1', 'TrkA (Homo sapiens)', 'remaining activity at 100 µM', '%', 42),
  ('CC(=O)Nc1nc2ccc([N+](=O)[O-])cc2s1', 'TrkA (Homo sapiens)', 'remaining activity at 100 µM', '%', 98),
  ('CC(=O)Nc1nc2ccc(C#N)cc2s1', 'TrkA (Homo sapiens)', 'remaining activity at 100 µM', '%', 87),
  ('CC(=O)Nc1nc2cc(C(F)(F)F)ccc2s1', 'TrkA (Homo sapiens)', 'remaining activity at 100 µM', '%', 74),
  ('CC(=O)Nc1nc2ccc(C(F)(F)F)cc2s1', 'TrkA (Homo sapiens)', 'remaining activity at 100 µM', '%', 45);

---

test_target: STK33 (Homo sapiens, UniProt Q9BYT3)
Sequence (Q9BYT3 whole entry, species assumed): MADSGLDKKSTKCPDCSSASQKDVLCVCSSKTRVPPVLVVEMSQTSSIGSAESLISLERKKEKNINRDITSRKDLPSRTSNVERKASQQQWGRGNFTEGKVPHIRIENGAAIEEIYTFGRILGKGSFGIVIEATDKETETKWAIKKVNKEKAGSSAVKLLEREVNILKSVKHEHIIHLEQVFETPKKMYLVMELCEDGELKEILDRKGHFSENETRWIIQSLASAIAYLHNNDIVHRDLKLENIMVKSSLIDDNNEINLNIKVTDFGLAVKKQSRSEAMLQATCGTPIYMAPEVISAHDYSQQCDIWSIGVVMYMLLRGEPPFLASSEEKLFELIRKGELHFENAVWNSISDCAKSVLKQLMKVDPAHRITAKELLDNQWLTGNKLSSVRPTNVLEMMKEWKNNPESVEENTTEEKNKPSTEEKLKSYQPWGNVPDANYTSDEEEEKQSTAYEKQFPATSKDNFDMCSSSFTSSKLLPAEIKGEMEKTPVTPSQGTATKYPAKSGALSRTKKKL
procedure_details: Kinase profiling STK33
Assay type: biochemical
applied_conditions: 100 micromolar inhibitor concentration; 100 is no change; read-out: residual kinase activity, STK33
Lab note - cut at 50% for remaining activity at 100 µM: class 1 if strictly below, class 0 if not.

INSERT INTO assay_data (smiles_str, assigned_category) VALUES
  ('CC(=O)Nc1nc2ccc(O)cc2s1', 'class 1'),
  ('CC(=O)Nc1nc2ccc(C(F)(F)F)cc2s1', 'class 1'),
  ('COc1ccc2sc(NC(C)=O)nc2c1', 'class 0'),
  ('CC(=O)Nc1nc2ccc(C#N)cc2s1', 'class 1'),
  ('CC(=O)Nc1nc2cc(F)ccc2s1', 'class 0'),
  ('CC(=O)Nc1nc2cc(C(F)(F)F)ccc2s1', 'class 0');

---

test_target: CSK (Homo sapiens, UniProt P41240)
procedure_details: Kinase profiling CSK
Format: biochemical
applied_conditions: 100 micromolar inhibitor concentration; 100 is no change; read-out: residual kinase activity, CSK
Rule: remaining activity at 100 µM below 80% gives 1 (yes). Equal to or above 80% gives 0 (no).

INSERT INTO results (smiles_str, assigned_category) VALUES
  ('COc1ccc2sc(NC(C)=O)nc2c1', '0 (no)'),
  ('CC(=O)Nc1nc2cc(C(F)(F)F)ccc2s1', '0 (no)'),
  ('CC(=O)Nc1nc2ccc(C(F)(F)F)cc2s1', '1 (yes)'),
  ('CC(=O)Nc1nc2ccc(C#N)cc2s1', '0 (no)'),
  ('CC(=O)Nc1nc2cc(F)ccc2s1', '0 (no)');

---

test_target: PKCa (Homo sapiens)
procedure_details: Kinase profiling PKCa
Type: biochemical
applied_conditions: 100 micromolar inhibitor concentration; 100 is no change
Text: Any value less that 25 is considered to be highly significant inhibition.
measured_attribute: residual kinase activity, PKCa

INSERT INTO results (molecule, endpoint_result) VALUES
  ('CC(=O)Nc1ccc(C(=O)Nc2nc3cc(O)ccc3s2)cc1', 59),
  ('COc1ccc2sc(NC(=O)c3ccc(NC(C)=O)cc3)nc2c1', 97),
  ('O=C(Nc1nc2ccc(O)cc2s1)c1ccncc1', 81),
  ('COc1ccc2nc(NC(=O)c3ccccc3)sc2c1', 89),
  ('COC(=O)c1cccc(C(=O)Nc2nc3ccc(F)cc3s2)c1', 109),
  ('COc1ccc2sc(NC(=O)c3ccccc3)nc2c1', 53),
  ('N#Cc1ccc2nc(NC(=O)c3ccccc3)sc2c1', 100),
  ('CC(=O)Nc1cccc(C(=O)Nc2nc3ccc(O)cc3s2)c1', 96),
  ('O=C(Nc1nc2cc(O)ccc2s1)c1ccccn1', 112),
  ('CC(=O)NC(C)C(=O)Nc1nc2ccc(C(F)(F)F)cc2s1 (stereo not drawn)', 125),
  ('CC(=O)Nc1nc2ccccc2s1', 104),
  ('O=C(Nc1nc2ccc(O)cc2s1)c1ccccn1', 101);
